All figures here come from PubChem BioAssay.

experimental.details: binders from COS7 lysate, DM2A8 probe, primary screen, torsin A project, cell lysate, small-molecule microarray, fluorescence 635/667 (AID 1065)
assay.setup: higher = more signal, COS7 lysate expressing mutant human TOR1A
Threshold rule: composite z-score greater than or equal to 0.2 is criterion met; below that, criterion not met.

Example results:
Confirm if composite z-score reported for the compound COC(=O)CC=C[C@@H](C)[C@@H]1C=C[C@H](O)[C@@H](CO)O1 is 0.2 or above.
criterion not met

Hi, just wondering whether O=C1CCCC=C1C(O)CCOC(c1ccccc1)(c1ccccc1)c1ccccc1 (stereo not drawn) shows composite z-score of 0.2 or higher.
criterion met

Please check the record CC(C)=CCCC(C)=CCON=C1C[C@@H](O)[C@@H](O)[C@@H]2[C@@H]3C(=O)N(C(C)(C)C)C(=O)[C@@H]3CC[C@@H]12 and state if its composite z-score is at or above 0.2.
criterion not met

Check the entry COC(=O)[C@@H]1CC[C@H](C)[C@@H](c2ccc(C)cc2)N1C(=O)c1ccc(C=NO[C@H](C)c2cn([C@@H]3COC[C@H]3O)nn2)cc1 : does composite z-score equal or exceed 0.2?
criterion not met

Confirm if composite z-score reported for the compound C[C@@H]1CC[C@H]2C(=O)O[C@@H](Cc3ccccc3)CN2[C@H]1c1ccc(Br)cc1 is 0.2 or above.
criterion met

Continuing:
State whether the measured composite z-score reaches 0.2, counting equality as reaching it, for C#CCCCON=C1C[C@@H](O)[C@@H](O)[C@@H]2[C@@H]3C(=O)N(c4ccc(F)cc4F)C(=O)[C@@H]3CC[C@@H]12
criterion met

Has Cc1ccc(S(=O)(=O)OC[C@H]2CN3[C@H](c4ccc(Br)cc4)[C@@H](C)CC[C@H]3C(=O)O2)cc1 a recorded composite z-score greater than or equal to 0.2?
criterion not met

###

Here the recorded z-score is given for each entry.
experimental.details: basal S. cerevisiae growth modulation, no modifier, primary screen, OD600, strain BY4716, 24 h, basal condition (AID 1173)
assay.setup: OD600, 24 h, higher = more signal, called active from +8 up or from −8 down
The response must contain the number and no unit.

Example results:
What measured z-score goes with COc1ccc(COC(=O)NN=C2C[C@@H](O)[C@@H](O)[C@@H]3[C@@H]4C(=O)N(c5ccc(F)cc5F)C(=O)[C@@H]4CC[C@H]23)cc1 ?
-0.291

Find the recorded z-score belonging to O=C1[C@H]2[C@H]3[C@H](O)[C@H](O)CC(=NOC[C@@H](O)COCc4ccco4)[C@H]3CC[C@H]2C(=O)N1C[C@@H]1CCCO1 and report it.
0.0107

Look up z-score: CCOC(=O)C1=NO[C@]2(C=C(Br)C3(OCCCO3)[C@H]3O[C@H]32)C1
-0.175

I would be grateful if you could share the reported z-score for O=C1C[C@@H](O)[C@@H](O)[C@@H]2[C@@H]3C(=O)N(C[C@@H]4CCCO4)C(=O)[C@@H]3CC[C@@H]12 .
0.0532

More entries:
Name the reported z-score value associated with the compound O=C1[C@H]2[C@H]3[C@H](O)[C@H](O)CC(=NOCc4ccccc4)[C@H]3CC[C@H]2C(=O)N1Cc1ccc2c(c1)OCO2
-0.0033

Which z-score is reported for this compound? C=CC[C@@H]1C=C[C@H](ON=C(C)CCN2CCc3nc(-c4ccccc4)c(-c4ccccc4)cc3C2)[C@@H](CO)O1
-1.96

Give the measured z-score of CCOC(=O)[C@H](CC(C)C)NC(=O)CCC1CC(OC(=O)NCc2ccc3c(c2)OCO3)CC2(CCCC(COC(=O)NCC(c3ccccc3)c3ccccc3)O2)O1 (some centres undefined) .
0.724
